Target: human ether-à-go-go-related gene (hERG) potassium channel (human);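 note: peak tail current of the secondary pulse compared with the same well before compound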
Experiment: primary screen, population patch clamp on CHO cells stably expressing hERG; higher = less effect of the substance
About 14,000 (4.5%) of roughly 310,000 compounds showed an effect of 50% or more. Effects have a minus sign here. This excerpt belongs to a sample that is enriched for strong results.
metric: hERG current change (%, negative = inhibition) at 10uM (%)
Give bare numbers, in %.

Answered examples (8):
{"molecule": "CCN1/C(=C/c2ccc3cc(C)ccc3[n+]2CC)Sc2ccc3sccc3c21.[I-]", "reported result": -44.5}
{"molecule": "O=C(CN1CCN(S(=O)(=O)c2ccc(F)cc2)CC1)Nc1ccc(F)cc1F", "reported result": -60.3}
{"molecule": "Cc1nnc(SCc2cc(=O)[nH]c(/N=C(\\N)Nc3ccccc3Sc3ccccc3)n2)s1", "reported result": -11.1}
{"molecule": "COc1cc(/C=C(/C#N)C(=O)Nc2ccccc2)c(Br)cc1OCc1ccc(C(=O)O)cc1", "reported result": 9.98}
{"molecule": "CCN1/C(=C/c2ccc3cccc(C)c3[n+]2CC)Sc2ccccc21.[I-]", "reported result": -75}
{"molecule": "O=C(Nc1ccc(F)cc1F)NC1CCN(S(=O)(=O)c2ccc(F)cc2)CC1", "reported result": 9.78}
{"molecule": "Cc1ccc(C(=O)O/N=C(\\N)c2ccccn2)c(C)c1", "reported result": -3.86}
{"molecule": "Cc1ccc2c(c1)S/C(=C\\c1cccc[n+]1C)N2CCO.[I-]", "reported result": -0.805}

Batch request: hERG current change (%, negative = inhibition) at 10uM for each of the following molecules.
1. CCC(=O)N/N=C(\C)CC(=O)Nc1cccc([N+](=O)[O-])c1
2. Cc1cc(C)[n+](-c2ccc(Oc3ccccc3)c(S(=O)(=O)[O-])c2)[nH]1
3. Cc1ccc(C)c(OC(=O)C2CSC3(C)CCC(=O)N23)c1C (stereo not shown)
4. COCCNC(=O)C(c1ccc(F)cc1)N(C(=O)CCC(=O)Nc1ccccn1)c1cccc(C)c1 (stereo not shown)

1. 9.57
2. 13.6
3. -7.46
4. 16.2

Batch request: hERG current change (%, negative = inhibition) at 10uM for each of the following molecules.
1. CCC(=O)/C=C1\Sc2ccccc2N1CC
2. COc1ccc(NC(=O)C/C(C)=N/NC(=O)c2ccncc2)c([N+](=O)[O-])c1
3. COc1ccc([N+](=O)[O-])cc1NC(=O)C1CCCN1S(=O)(=O)c1cccs1 (stereo not shown)
4. COc1ccc(CN2CCN(C(=O)C3CCC(CNS(=O)(=O)c4ccc(C)cc4)CC3)CC2)c(OC)c1OC (stereo not shown)
5. N/C(=N\OC(=O)COc1ccc(Cl)cc1Br)c1cccnc1

-3.72
-59.8
-18.1
-27.5
-8.3

Batch request: hERG current change (%, negative = inhibition) at 10uM for each of the following molecules.
1. CCN1/C(=C/c2ccc3ccc(C)cc3[n+]2CC)Sc2ccccc21.[I-]
2. CCN1/C(=C/C(=O)c2ccco2)Sc2ccccc21

-81.1
8.09

* * *

Target: human ether-à-go-go-related gene (hERG) potassium channel (human);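 note: peak tail current of the secondary pulse compared with the same well before compound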
Experiment: primary screen, population patch clamp on CHO cells stably expressing hERG; higher = less effect of the substance
Hit rate of the full screen: of about 310,000 compounds, about 14,000 (4.5%) showed an effect of 50% or more. The effect is printed as a negative number. This excerpt belongs to a sample that is enriched for strong results.
metric: hERG current change (%, negative = inhibition) at 10uM (%)
Numbers only, in %.

{"smiles notation": "COc1ccc(P(=O)(COc2ccc([N+](=O)[O-])cc2)c2ccc(OC)cc2)cc1", "system name": "human ether-à-go-go-related gene (hERG) potassium channel (human)", "reported result": -71}
{"smiles notation": "CN(C)c1ccc(P(=O)(COc2ccc([N+](=O)[O-])cc2)c2ccc(N(C)C)cc2)cc1", "system name": "human ether-à-go-go-related gene (hERG) potassium channel (human)", "reported result": -41.9}
{"smiles notation": "COc1ccc(CNC(=O)COc2ccc(OC)cc2)cc1", "system name": "human ether-à-go-go-related gene (hERG) potassium channel (human)", "reported result": 13.8}
{"smiles notation": "O=C(COc1ccc([N+](=O)[O-])cc1)NCc1cccnc1", "system name": "human ether-à-go-go-related gene (hERG) potassium channel (human)", "reported result": -33.4}

Then this molecule:
Would you mind telling me what hERG current change (%, negative = inhibition) at 10uM value was observed for `O=C(COc1ccc([N+](=O)[O-])cc1)NCc1ccncc1` ?
-67.6

* * *

Target: human ether-à-go-go-related gene (hERG) potassium channel (human, UniProt Q12809);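 note: peak tail current of the secondary pulse compared with the same well before compound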
Sequence (Q12809 whole entry, looked up): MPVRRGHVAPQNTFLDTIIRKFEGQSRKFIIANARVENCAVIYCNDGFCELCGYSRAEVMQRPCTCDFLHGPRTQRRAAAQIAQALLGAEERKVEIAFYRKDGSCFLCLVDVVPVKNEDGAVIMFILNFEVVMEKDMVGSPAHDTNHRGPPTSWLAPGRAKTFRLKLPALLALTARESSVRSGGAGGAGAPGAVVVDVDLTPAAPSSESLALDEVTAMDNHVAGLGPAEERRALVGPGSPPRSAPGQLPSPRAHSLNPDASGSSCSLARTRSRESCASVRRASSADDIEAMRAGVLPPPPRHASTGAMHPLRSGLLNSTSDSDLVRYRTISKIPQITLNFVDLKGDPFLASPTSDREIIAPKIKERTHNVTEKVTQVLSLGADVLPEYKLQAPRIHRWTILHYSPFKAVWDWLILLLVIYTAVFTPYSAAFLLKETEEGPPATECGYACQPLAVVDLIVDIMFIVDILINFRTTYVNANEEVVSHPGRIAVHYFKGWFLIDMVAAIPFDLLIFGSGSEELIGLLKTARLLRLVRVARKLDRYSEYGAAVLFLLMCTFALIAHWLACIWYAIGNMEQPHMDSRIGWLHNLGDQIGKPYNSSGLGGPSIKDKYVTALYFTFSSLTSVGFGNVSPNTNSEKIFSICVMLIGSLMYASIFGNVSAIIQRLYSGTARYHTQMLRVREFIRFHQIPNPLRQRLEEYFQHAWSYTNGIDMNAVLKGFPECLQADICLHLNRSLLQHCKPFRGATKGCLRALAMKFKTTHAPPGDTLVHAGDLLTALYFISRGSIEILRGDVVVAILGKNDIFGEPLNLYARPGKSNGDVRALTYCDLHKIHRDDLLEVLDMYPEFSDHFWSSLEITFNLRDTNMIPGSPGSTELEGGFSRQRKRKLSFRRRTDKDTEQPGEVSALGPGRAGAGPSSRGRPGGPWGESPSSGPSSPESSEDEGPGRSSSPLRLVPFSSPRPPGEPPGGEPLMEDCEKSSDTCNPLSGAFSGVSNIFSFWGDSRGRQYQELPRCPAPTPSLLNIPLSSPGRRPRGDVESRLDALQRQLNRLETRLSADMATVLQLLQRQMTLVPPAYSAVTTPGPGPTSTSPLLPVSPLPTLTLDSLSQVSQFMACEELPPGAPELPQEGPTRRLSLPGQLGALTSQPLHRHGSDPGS
Assay: primary screen, population patch clamp on CHO cells stably expressing hERG; higher = less effect of the substance
Out of some 310,000 compounds screened, about 14,000 (4.5%) showed an effect of 50% or more. The effect is printed as a negative number. What follows is part of a selection rich in strong results, with near analogues and random picks from the rest.
metric: hERG current change (%, negative = inhibition) at 10uM (%)
Answers are plain numbers, in %.

Answered examples (6):
{"compound": "C=CCn1c(SCC(=O)N2CCCC2)nc2c([nH]c3ccccc32)c1=O", "system name": "human ether-à-go-go-related gene (hERG) potassium channel (human, UniProt Q12809)", "reported result": -29.6}
{"compound": "O=C(O)c1nn(-c2ccccc2)nc1-c1nn(-c2ccccc2)nc1C(=O)O", "system name": "human ether-à-go-go-related gene (hERG) potassium channel (human, UniProt Q12809)", "reported result": 19.7}
{"compound": "Cc1nn(CC(=O)NCCCN2CCN(C)CC2)c(=O)c2cc(-c3ccccc3)nn12", "system name": "human ether-à-go-go-related gene (hERG) potassium channel (human, UniProt Q12809)", "reported result": 0.586}
{"compound": "CC1=NN(c2ccccc2)C(=O)C1/C=C1\\C(=O)NC(=O)N(c2cc(C)cc(C)c2)C1=O (stereo not shown)", "system name": "human ether-à-go-go-related gene (hERG) potassium channel (human, UniProt Q12809)", "reported result": 6.47}
{"compound": "O=C(Oc1ccc(/C=N/Nc2nc(N3CCCCC3)nc(N3CCCCC3)n2)cc1)c1ccco1", "system name": "human ether-à-go-go-related gene (hERG) potassium channel (human, UniProt Q12809)", "reported result": -9.1}
{"compound": "CCn1c(SCC(=O)N2CCOCC2)nc2sc3c(c2c1=O)CCCC3", "system name": "human ether-à-go-go-related gene (hERG) potassium channel (human, UniProt Q12809)", "reported result": -5.19}

Batch request: hERG current change (%, negative = inhibition) at 10uM for each of the following compounds.
1. CN1CCN(c2ccc(-c3ccnn3C(=O)Nc3ccccc3)cc2)CC1
2. O=C(CN1CCN(c2ccc(F)cc2)CC1)Nc1ccc(S(=O)(=O)N2CCOCC2)cc1
3. Cc1nn(CC(=O)NCCN2CCCCC2C)c(=O)c2cc(-c3ccccc3)nn12 (stereo not shown)

1: -11.5; 2: 0.845; 3: -48.4

* * *

Biological target: human ether-à-go-go-related gene (hERG) potassium channel (human, UniProt Q12809);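 note: peak tail current of the secondary pulse compared with the same well before compound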
Assay: primary screen, population patch clamp on CHO cells stably expressing hERG; higher = less effect of the substance
Among all 310,000 compounds or so, about 14,000 (4.5%) showed an effect of 50% or more. The effect is printed as a negative number. Many of the other results were omitted from the sample, so strong results are more common in it than they were.
metric: hERG current change (%, negative = inhibition) at 10uM (%)
One number for each entry, in %.

Answered examples (3):
{"compound": "COCC(C)OC(=O)c1c(N)n(CCCN2CCOCC2)c2nc3ccccc3nc12 (centres unmarked)", "reported result": -9.69}
{"compound": "COC(CNC(=O)c1cn(C)c2ccc(S(=O)(=O)N(C)C3CCCCC3)cc2c1=O)OC", "reported result": -21.5}
{"compound": "COc1ccc(CC(=O)Nc2ccc(C#N)c(Cl)c2)cc1S(=O)(=O)N1CCOCC1", "reported result": -68.1}

Batch request: hERG current change (%, negative = inhibition) at 10uM for each of the following compounds.
1. CCCCC(=O)Nc1ccc2c(c1)C(=O)NC2=O
2. O=C(C1=NN[C@@H]2C(=O)N(c3cccc(F)c3)C(=O)[C@H]12)C(c1ccccc1)c1ccccc1
3. Cc1ccc(N2CCN(C(=O)c3ccccc3)CC2)c(C)c1
4. CCCCCCn1c(N)c(C(=O)NCCN2CCOCC2)c2nc3ccccc3nc21
5. O=C1NC(=Nc2ccccc2)/C(=C/c2ccco2)S1
6. O=c1[nH]c(/C=C\c2ccc(O)c(O)c2)nc(O)c1[N+](=O)[O-]

1: 2.21; 2: -19.2; 3: -18.4; 4: -8.61; 5: 12.4; 6: 16.2

Batch request: hERG current change (%, negative = inhibition) at 10uM for each of the following compounds.
1. COc1cc2c(cc1OC)CN(c1ccc([N+](=O)[O-])cc1C#N)CC2
2. CCCCN(CCCC)CCNC(=O)c1cn(C)c2ccc(S(=O)(=O)N(C)C3CCCCC3)cc2c1=O
3. CCn1cc(CN(C)S(=O)(=O)c2ccc3ccccc3c2)c(C)n1
4. COc1ccc(O)c(C(=O)c2coc(=N)c(C(=O)Nc3ccc(SC(F)F)cc3)c2)c1
5. COc1ccc(CC(=O)Nc2ccc(N3CCOCC3)cc2)cc1S(=O)(=O)N1CCOCC1
6. COc1cc2c(cc1OC)CN(c1ccc(F)cc1[N+](=O)[O-])CC2
7. O=C(c1ccc(F)cc1)N1CCC(C(=O)N2CCN(S(=O)(=O)c3cccc([N+](=O)[O-])c3)CC2)CC1

-50
-76.7
-1.17
-69.9
0.936
-27.9
-34.5

The origin of these recorded values is paper PMC4336329.
